# target.system: human MMP-2 (amino acids 1-660) (Homo sapiens, UniProt P08253)
# Construct: human MMP-2 (amino acids 1-660); made in house
# Sequence (P08253 110-660): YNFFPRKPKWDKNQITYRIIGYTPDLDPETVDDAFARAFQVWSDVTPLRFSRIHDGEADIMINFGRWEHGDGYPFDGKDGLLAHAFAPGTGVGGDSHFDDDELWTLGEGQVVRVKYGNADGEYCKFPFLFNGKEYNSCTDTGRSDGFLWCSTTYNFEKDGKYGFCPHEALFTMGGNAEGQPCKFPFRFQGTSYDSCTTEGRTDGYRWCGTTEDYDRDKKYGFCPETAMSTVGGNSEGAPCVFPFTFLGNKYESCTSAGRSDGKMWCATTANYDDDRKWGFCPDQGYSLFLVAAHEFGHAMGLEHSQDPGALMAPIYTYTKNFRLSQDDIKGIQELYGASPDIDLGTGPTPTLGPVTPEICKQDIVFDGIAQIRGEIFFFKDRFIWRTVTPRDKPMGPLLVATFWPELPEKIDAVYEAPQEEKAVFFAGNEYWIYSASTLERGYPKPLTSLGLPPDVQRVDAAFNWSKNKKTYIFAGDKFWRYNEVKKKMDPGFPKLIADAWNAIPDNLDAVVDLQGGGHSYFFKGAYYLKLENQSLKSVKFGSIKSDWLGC
# protocol.summary: MMP dose response assay for determining IC50, MMP-2
# Format: biochemical
# condition.details: MMP-2 (nM)
endpoint.label: IC50 (nM)
Record the value in nM, omitting the unit from your answer.

I would be grateful if you could share the reported IC50 for COc1ccc(C#Cc2ccc(N(C[C@H](O)C(=O)NO)S(C)(=O)=O)cc2)cc1 .
31.6

====

For each record, write down the corresponding IC50.
# target.system: human MMP-9 (amino acids 107-446) (Homo sapiens, UniProt P14780)
# Construct: human MMP-9 (amino acids 107-446); made in house
# Sequence (P14780 107-446): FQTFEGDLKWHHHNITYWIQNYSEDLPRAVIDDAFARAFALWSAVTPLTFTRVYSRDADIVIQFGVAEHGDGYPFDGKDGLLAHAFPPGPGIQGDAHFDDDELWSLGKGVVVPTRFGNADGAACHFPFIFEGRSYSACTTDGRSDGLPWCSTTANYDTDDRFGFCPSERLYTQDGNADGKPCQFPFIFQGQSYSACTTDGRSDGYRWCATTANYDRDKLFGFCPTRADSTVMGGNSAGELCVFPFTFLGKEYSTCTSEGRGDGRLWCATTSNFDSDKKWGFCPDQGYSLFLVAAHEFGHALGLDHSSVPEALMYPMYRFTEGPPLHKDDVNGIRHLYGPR
# protocol.summary: MMP dose response assay for determining IC50, MMP-9
# Type: biochemical
# condition.details: recombinant enzyme, fluorescent-quench substrate 100 nM; read-out: MMP-9
Record the value in nM, omitting the unit from your answer.

I would be grateful if you could share the reported IC50 for CC(C)CN(O)C(=O)[C@H](CN(c1ccc(Oc2ccc(C(F)(F)F)cc2)cc1)S(C)(=O)=O)N1CCOCC1 .
87.9

Also check CN(O)C(=O)[C@H](CN(c1ccc(Oc2ccc(C(F)(F)F)cc2)cc1)S(C)(=O)=O)N1CCOCC1
159

Also check Cc1ccc(Oc2ccc(N(C[C@H](O)C(=O)NO)S(=O)(=O)c3ccccc3)cc2)cc1
344

Just for reference, patent US20080085893A1 is where these values come from.
